assay: Toxicity in mouse HN9.10 cells expressing human KOR assessed as cell viability at 1 mM after 24 hrs by XTT assay; assay type: cell-based; conditions: read-out: Activity
Where a SMILES comes first, the peptide text is derived from it. The star is where a group is joined. X1 = Cc1cc(O)cc(C)c1C[C@H](C)C(=O)*
Listing: viability at 24 h, 1000 µM of selected molecules
Readout: viability at 24 h, 1000 µM (%)

- Molecule: "CC[C@H](C)[C@H](NC(=O)[C@H](CCCNC(=N)N)NC(=O)[C@H](CC(C)C)NC(=O)[C@H](Cc1ccccc1)NC(=O)CNC(=O)CNC(=O)[C@@H](C)Cc1c(C)cc(O)cc1C)C(=O)N[C@@H](CCCNC(=N)N)C(=O)N1CCC[C@H]1C(=O)N[C@@H](CCCCN)C(N)=O (X1-GGFLRIRPK-NH2)"
  Readout: "viability at 24 h, 1000 µM"
  Endpoint Value: 100
- Molecule: "CC[C@H](C)[C@H](NC(=O)[C@H](CCCN=C(N)N)NC(=O)[C@H](CCCN=C(N)N)NC(=O)[C@H](CC(C)C)NC(=O)[C@H](Cc1ccccc1)NC(=O)CNC(=O)CNC(=O)[C@@H](N)Cc1ccc(O)cc1)C(=O)N[C@@H](CCCN=C(N)N)C(=O)N1CCC[C@H]1C(=O)N[C@@H](CCCCN)C(N)=O"
  Readout: "viability at 24 h, 1000 µM"
  Endpoint Value: 100
